src = the RepoRT retention time repository (doi:10.1016/j.chroma.2022.462867)

experiment: RP, Phenomenex Kinetex EVO C18, 150 × 3 mm, 2.6 µm, 40 °C, 0.35 mL/min, estimated dead time 1.9 min; A: water + 0.1% formic acid, pH 3; B: methanol; gradient (min/%B) 0/5 20/100 25/100 30/5; conditions: stereoisomer not certain
Measured Quantity: LC retention time (min)

Oc1ccc2ccccc2c1N=Nc1ccccc1
19.4

[I] CSc1nc2ccccc2s1
[II] CCN=C1NC(NC(C)C)=NC(OC)N1 (centres undefined)
Which entry has a larger number for LC retention time, I or II ? Write the label of whichever entry you select.
I
(I: 15.2 min, II: 8.8 min)

[A] CCN=C1NC(NC(C)C)=NC(Cl)N1 (centres undefined)
[B] NS(=O)(=O)c1cc2c(cc1Cl)NCNS2(=O)=O [Hydrochlorothiazide]
For A and B , which recorded LC retention time is lower? Write the label of whichever entry you select.
B
(B: 4.62 min, A: 13.6 min)

[a] CC12CCC3c4ccc(O)cc4CCC3C1CCC2O (centres undefined)
[b] O=C(CCCN1CCC(O)(c2ccc(Cl)cc2)CC1)c1ccc(F)cc1
Which entry has a larger number for LC retention time, a or b ? Write the label of whichever entry you select.
a

* * *

assay: RP, Phenomenex Kinetex EVO C18, 150 × 3 mm, 2.6 µm, 40 °C, 0.35 mL/min, estimated dead time 1.9 min; A: water + 0.1% formic acid, pH 3; B: methanol; gradient (min/%B) 0/5 20/100 25/100 30/5; settings: stereoisomer not certain
Measured Quantity: LC retention time (min)

N#Cc1nn(-c2c(Cl)cc(C(F)(F)F)cc2Cl)c(N)c1S(=O)C(F)(F)F (centres undefined)
16.7
C1=Cc2ccccc2Nc2ccccc21
15.7
CCc1cccc(CC)c1N(COC)C(=O)CCl
16.2

[A] O=C1Nc2ccc(Cl)cc2C(C#CC2CC2)(C(F)(F)F)O1 (centres undefined)
[B] CN(C)CC(c1ccc(O)cc1)C1(O)CCCCC1 (centres undefined)
[C] CC(=O)N1CCN(c2ccc(OCC3COC(Cn4ccnc4)(c4ccc(Cl)cc4Cl)O3)cc2)CC1 (centres undefined)
Reorder: LC retention time, max to min. Reply with the labels, ordered as the question asks.
A, C, B
(A: 16.8 min, C: 11.2 min, B: 5.49 min)

* * *

assay: RP, Phenomenex Kinetex PS C18, 150 × 3 mm, 2.6 µm, 40 °C, 0.35 mL/min, estimated dead time 1.9 min; A: water + 5 mM ammonium acetate, pH 5; B: methanol; gradient (min/%B) 0/5 20/100 25/100 30/5; details: stereoisomer not certain
Measured Quantity: LC retention time (min)

[1] CC12CCC(=O)C=C1CCC1C2C(O)CC2(C)C(C(=O)CO)CCC12 (centres undefined)
[2] CCCc1cc(=O)[nH]c(=S)[nH]1
Which entry has a larger number for LC retention time, 1 or 2 ? Write the label of whichever entry you select.
1
(1: 15 min, 2: 7.7 min)

[A] O=C(CCCN1CCC(O)(c2ccc(Cl)cc2)CC1)c1ccc(F)cc1
[B] CC(C)C1=CC2=CCC3C(C)(C(=O)O)CCCC3(C)C2CC1 (centres undefined)
Which entry has a larger number for LC retention time, A or B ? Write the label of whichever entry you select.
B
(B: 20.3 min, A: 13.7 min)

[a] CCN=C1NC(Cl)NC(NC(C)(C)C#N)N1 (centres undefined)
[b] Cn1c(=O)c2c(ncn2C)n(C)c1=O
For a and b , which recorded LC retention time is lower? Write the label of whichever entry you select.
b
(b: 7.93 min, a: 12 min)

[I] CC(=O)OCC(=O)C1(O)CCC2C3CCC4=CC(=O)CCC4(C)C3C(O)CC21C (centres undefined) [Hydrocortisonacetate]
[II] NS(=O)(=O)c1cc(C2(O)NC(=O)c3ccccc32)ccc1Cl (centres undefined)
[III] Nc1ccc(S(=O)(=O)Nc2ccccn2)cc1
Reorder: LC retention time, max to min. Reply with the labels, ordered as the question asks.
I, II, III
(I: 15 min, II: 9.81 min, III: 6.53 min)

[I] O=C1Nc2ccc(Cl)cc2C(C#CC2CC2)(C(F)(F)F)O1 (centres undefined)
[II] Cc1cc(=O)n(-c2ccccc2)n1C [Phenazone (Antipyrine)]
Which entry has a larger number for LC retention time, I or II ? Write the label of whichever entry you select.
I

[1] CN(C)C(=O)Nc1ccc(Cl)c(Cl)c1
[2] OC(Cn1cncn1)(Cn1cncn1)c1ccc(F)cc1F
Which entry has a larger number for LC retention time, 1 or 2 ? Write the label of whichever entry you select.
1
(1: 14.1 min, 2: 9.64 min)

[I] CC(C)(C)C(=O)C(Oc1ccc(Cl)cc1)n1ccnc1 (centres undefined)
[II] CN1C(=O)CCC1c1cccnc1 (centres undefined)
For I and II , which recorded LC retention time is lower? Write the label of whichever entry you select.
II

[a] O=C(O)c1ccc2ccccc2c1
[b] Oc1ccc2ccccc2c1N=Nc1ccccc1
For a and b , which recorded LC retention time is lower? Write the label of whichever entry you select.
a
(a: 13 min, b: 19.2 min)

* * *

experiment: RP, Phenomenex Kinetex EVO C18, 150 × 3 mm, 2.6 µm, 40 °C, 0.35 mL/min, estimated dead time 1.9 min; A: water + 5 mM ammonium formate, pH 5; B: acetonitrile; gradient (min/%B) 0/5 20/100 25/100 30/5; settings: stereoisomer not certain
Measured Quantity: LC retention time (min)

Use the examples below as a reference point.
CCCCC1=NC2(CCCC2)C(=O)N1Cc1ccc(-c2ccccc2-c2nn[nH]n2)cc1 [Irbesartan]
9.45
NS(=O)(=O)c1cc(C2(O)NC(=O)c3ccccc32)ccc1Cl (centres undefined) [Chlorthalidone]
6.87
CCOP(=S)(OCC)Oc1nc(Cl)c(Cl)cc1Cl [Chlorpyrifos]
15.9
CC12CCC3c4ccc(O)cc4CCC3C1CCC2O (stereo not drawn) [17beta estradiol]
11.2
C1=Cc2ccccc2Nc2ccccc21 [Iminostilbene]
13

[A] c1ccc2c(c1)[nH]c1ccccc12 [Carbazole]
[B] Cc1ccc2n[nH]nc2c1 [5-Methyl-1H-benzotriazole]
[C] CN1C(=O)CCC1c1cccnc1 (centres undefined) [Cotinine]
Please put the entries in order of rising LC retention time. Reply with the labels, ordered as the question asks.
C, B, A
(C: 3.66 min, B: 6.42 min, A: 12.5 min)

* * *

assay: RP, Phenomenex Kinetex EVO C18, 150 × 3 mm, 2.6 µm, 40 °C, 0.35 mL/min, estimated dead time 1.9 min; A: water + 5 mM ammonium formate, pH 5; B: acetonitrile; gradient (min/%B) 0/5 20/100 25/100 30/5; settings: stereoisomer not certain
Measured Quantity: LC retention time (min)

Use the examples below as a reference point.
Cn1c(=O)c2[nH]cnc2n(C)c1=O [Theophylline]
3.27
CCN=C1NC(NC(C)C)=NC(SC)N1 (stereo unspecified) [Ametryn]
11.3
Oc1ccc2ccc3cccc4ccc1c2c34 [1-hydroxypyrene]
13.1
CCOP(=S)(OCC)Oc1ccc([N+](=O)[O-])cc1 [Parathion]
14.2

[1] c1ccc2scnc2c1 [Benzothiazole]
[2] c1ccc2n[nH]nc2c1 [1H-Benzotriazole]
Which entry has a larger number for LC retention time, 1 or 2 ? Write the label of whichever entry you select.
1

* * *

assay: RP, Phenomenex Kinetex PS C18, 150 × 3 mm, 2.6 µm, 40 °C, 0.35 mL/min, estimated dead time 1.9 min; A: water + 5 mM ammonium acetate, pH 5; B: methanol; gradient (min/%B) 0/5 20/100 25/100 30/5; settings: stereoisomer not certain
Measured Quantity: LC retention time (min)

Use the examples below as a reference point.
CCCSP(=O)(OCC)SCCC
16.5
CC(C)COP(=O)(OCC(C)C)OCC(C)C [Tri-isobutyl phosphate]
18
CCC(C)(C)C(=O)OC1CC(C)C=C2C=CC(C)C(CCC3CC(O)CC(=O)O3)C21 (stereo not given)
19.1

[a] CCC1=C(C)CN(C(=O)NCCc2ccc(S(=O)(=O)NC(=O)NC3CCC(C)CC3)cc2)C1=O (stereo not given) [Glimepiride]
[b] Cn1c(=O)c2[nH]cnc2n(C)c1=O
[c] NC(=O)c1cccnc1 [Nicotinamide]
Please put the entries in order of rising LC retention time. Reply with the labels, ordered as the question asks.
c, b, a
(c: 3.85 min, b: 6.79 min, a: 16.5 min)

* * *

experiment: RP, Phenomenex Kinetex PS C18, 150 × 3 mm, 2.6 µm, 40 °C, 0.35 mL/min, estimated dead time 1.9 min; A: water + 5 mM ammonium acetate, pH 5; B: methanol; gradient (min/%B) 0/5 20/100 25/100 30/5; details: stereoisomer not certain
Measured Quantity: LC retention time (min)

CC12CCC3c4ccc(O)cc4CCC3C1CCC2O (stereo not drawn)
15.8
COC(=O)C1C2CC3c4[nH]c5cc(OC)ccc5c4CCN3CC2CC(OC(=O)c2cc(OC)c(OC)c(OC)c2)C1OC (stereo not drawn)
17.1
CCN=C1NC(NC(C)C)=NC(OC)N1 (stereo not drawn)
13.7
